Where do these numbers come from? They come from paper PMC9250534.

Field: fraction of fluorescent probe displaced. Provide a value for each of the compounds that follow.
Target: MDM2 (Homo sapiens, UniProt Q00987)
Sequence (Q00987 whole entry): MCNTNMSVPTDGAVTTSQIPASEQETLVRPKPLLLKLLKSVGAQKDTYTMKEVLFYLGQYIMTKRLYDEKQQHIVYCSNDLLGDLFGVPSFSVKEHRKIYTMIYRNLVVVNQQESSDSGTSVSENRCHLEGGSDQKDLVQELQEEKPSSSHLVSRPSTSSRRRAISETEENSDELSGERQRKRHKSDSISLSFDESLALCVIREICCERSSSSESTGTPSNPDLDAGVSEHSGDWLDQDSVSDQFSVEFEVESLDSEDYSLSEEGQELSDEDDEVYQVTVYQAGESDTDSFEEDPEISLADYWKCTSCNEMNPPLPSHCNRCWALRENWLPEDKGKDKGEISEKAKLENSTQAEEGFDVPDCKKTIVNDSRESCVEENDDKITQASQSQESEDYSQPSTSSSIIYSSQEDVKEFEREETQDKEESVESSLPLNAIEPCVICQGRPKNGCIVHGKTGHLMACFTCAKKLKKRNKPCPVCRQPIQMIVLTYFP
Assay: MDM2 binding screen of Libraries 3 and 4: displacement of fluorescent probe F-M8 at 750 nM macrocycle
Conditions: Panel c, Library 4: best nine scaffolds and 15 additional carboxylic acids; displacement of fluorescent probe
One number for each entry.

Illustrative cases are given below, each with its answer.
CC(C)c1ccc(/C=C/C(=O)NC[C@@H]2NC(=O)[C@H]3CCCN(C3)C(=O)CCSSCCNC(=O)[C@H](Cc3cn(C)c4ccccc34)NC2=O)cc1 ... 0.028
O=C(/C=C/c1cccc(C(F)(F)F)c1)NC[C@@H]1NC(=O)[C@H]2CCCN(C2)C(=O)CCSSCCNC(=O)[C@H](Cc2c[nH]c3ccccc23)NC1=O ... 0.395

Lab note: record fraction of fluorescent probe displaced of CCCOc1ccc(/C=C/C(=O)NC[C@@H]2NC(=O)[C@H]3CCCN(C3)C(=O)CCSSCCNC(=O)[C@H](Cc3cccc4ccccc34)NC2=O)cc1 tested on MDM2 (Homo sapiens, UniProt Q00987).
-0.00464

----------
Target: thrombin (Homo sapiens, UniProt P00734)
Construct: consists of two polypeptide chains of 36 (light chain) and 259 amino acid
Experiment: Thrombin inhibition screen of crude macrocycle reactions (residual thrombin activity, fluorogenic substrate Z-Gly-Gly-Arg-AMC)
Format: biochemical
Details: 10 µM macrocycle concentration; crude reactions, Library 1a-l; scaffold AA1-AA2-AA3 combined with 1-16 or '-'
observation_type: percent residual thrombin activity (%)
Answers are plain numbers, in %.

O=C(Cc1c[nH]c2ccccc12)NCCC[C@@H]1NC(=O)CCSSCCNC(=O)[C@H](Cc2c[nH]cn2)NC(=O)c2cccc(c2)CNC1=O [D2-B5-H/12] ... 99.4462
Cc1nnsc1C(=O)NCCCC[C@@H]1NC(=O)CCSSCCNC(=O)C2(CC2)CNC(=O)[C@H](C(C)C)NC1=O [D1-V-B6/15] ... 112.935
O=C(COc1ccccc1)NCCCC[C@@H]1NC(=O)[C@@H](Cc2c[nH]c3ccccc23)NC(=O)[C@H]2CCCN(C2)C(=O)CCSSCCNC1=O [B4-W-D1/13] ... 97.6967

Okay, here is my list. What is percent residual thrombin activity for each of these?
1. O=C1CCSSCCNC(=O)[C@H](CCCNC(=O)c2ccco2)NC(=O)c2ccc(cc2)CNC(=O)[C@H](CO)N1 [S-B3-D2/16]
2. O=C(Cc1c[nH]c2ccccc12)NCCCCC1NC(=O)CCSSCCNC(=O)C(Cc2ccc(O)cc2)NC(=O)C2CCCN(C2)C1=O (stereo not shown) [D1-B4-y/12]

114.086
103.012

----------
Biological target: MDM2 (Homo sapiens)
Assay: MDM2 binding screen: displacement of fluorescent p53 peptide probe FP53 (fluorescence polarization)
Conditions: Acid 14; replicate; crude macrocycle reactions
Numbered stars: 1 amine (or outer) side, 2 acyl side, 3 side chain; on linkers, the order of the positions; unused ones are H or OH. Bridge positions count the residues as written; N and C are the ends. Square brackets hold non-standard residues; d marks the D form. Peptide text beside a SMILES is read from it. * marks the point of attachment. Pro(4S-NHCO(5-Cl-2-thienyl)) = O=C(N[C@@H]1CN[C@H](C(=O)O)C1)c1ccc(Cl)s1; 2Thenoyl(5-Cl) = O=C(c1ccc(Cl)s1)*; Cysteamide = C(CS[*:3])N[*:1]; Api = NC1(C(=O)O)CCNCC1; Mpa = O=C(O)CCS
I'd appreciate it if you marked entries Condition met when fraction fluorescent probe displaced, Replicate is lower than 0.05 and Condition not met when it is not.

O=C1CCNC(=O)C(Cc2ccccc2)NC(=O)C2CC(NC(=O)c3ccc(Cl)s3)CN2C(=O)CCSSCCN1 (centres unmarked) [X D5 F B2 Acid 14] ... Condition met
O=C1CCNC(=O)[C@H](Cc2ccccc2)NC(=O)CCSSCCNC(=O)[C@H](CNC(=O)c2ccc(Cl)s2)N1 [X F B2 D3 Acid 14] ... Condition not met
O=C(N[C@H]1C[C@H]2C(=O)N[C@@H](Cc3c[nH]c4ccccc34)C(=O)N3CCC[C@H]3C(=O)NCCSSCCC(=O)N2C1)c1ccc(Cl)s1 [X D5 W B1 Acid 14] ([Mpa][Pro(4S-NHCO(5-Cl-2-thienyl))]WP-Cysteamide; disulfide 1-C) ... Condition not met
O=C1CCSSCCNC(=O)C2CC(NC(=O)c3ccc(Cl)s3)CN2C(=O)C2CCCN(C2)C(=O)C(Cc2c[nH]c3ccccc23)N1 (centres unmarked) [X W B4 D5 Acid 14] ... Condition not met
O=C1CCSSCCNC(=O)C2(CCN(C(=O)c3ccc(Cl)s3)CC2)NC(=O)[C@@H]2CCCN2C(=O)[C@H](Cc2c[nH]c3ccccc23)N1 [X W B1 D6 Acid 14] ([Mpa]WP[Api](2Thenoyl(5-Cl))-Cysteamide; disulfide 1-C) ... Condition met
O=C(N[C@H]1C[C@H]2C(=O)NCCSSCCC(=O)N3CCC[C@@H](C3)C(=O)N[C@@H](Cc3c[nH]c4ccccc34)C(=O)N2C1)c1ccc(Cl)s1 [X B4 W D5 Acid 14] ... Condition met
O=C1CCSSCCNC(=O)C(Cc2ccccc2)NC(=O)C2CN(C(=O)c3ccc(Cl)s3)CCN2C(=O)c2cccc(c2)CN1 (mixture of isomers) [X B5 D7 F Acid 14] ... Condition met
O=C1CCSSCCNC(=O)C2CN(C(=O)c3ccc(Cl)s3)CCN2C(=O)C(Cc2c[nH]c3ccccc23)NC(=O)CCN1 (mixture of isomers) [X B2 W D7 Acid 14] ... Condition not met

Quick check: does O=C1CCSSCCNC(=O)c2cccc(c2)CNC(=O)C2(CCN(C(=O)c3ccc(Cl)s3)CC2)NC(=O)[C@H](Cc2ccccc2)N1 [X F D6 B5 Acid 14] have fraction fluorescent probe displaced, Replicate under 0.05?
Condition met

Take the compound O=C1CCSSCCNC(=O)[C@@H]2CCCN2C(=O)[C@H](Cc2c[nH]c3ccccc23)NC(=O)C2(CCN(C(=O)c3ccc(Cl)s3)CC2)N1 [X D6 W B1 Acid 14] ([Mpa][Api](2Thenoyl(5-Cl))WP-Cysteamide; disulfide 1-C) and say whether its fraction fluorescent probe displaced, Replicate is less than 0.05.
Condition not met
